Experiment: probe aDKK1 binding to arrayed compounds – biochemical, biotinylated probe, 635/667 nm fluorescence, primary screen (AID 1099);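 also: score merges 667nm spot fluorescence with signal to noise across triplicate slides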
Details: small-molecule microarray, higher = more signal
QUANTITY MEASURED: composite z-score

Known composite z-score results, listed for orientation:
MOLECULE: CC(C)OC(=O)C1=CCC(c2cccc(Cl)c2)O1 (stereo not given)
MEASUREMENT: -0.306

MOLECULE: CCCCN1CC=CC23O[C@@H]4/C=C\CCCOC(=O)C4[C@H]2C(=O)N(C(C)CO)[C@@H]3C1=O (stereo not given in full)
MEASUREMENT: -0.292

MOLECULE: C=C[C@H](OC)[C@@H](OC(=O)Nc1ccc(SC)cc1)c1ccc(OCCO)cc1
MEASUREMENT: 0.242

MOLECULE: CN(C)CCCCCCNC(=O)[C@@H]1C[C@@H]2C(=O)NCC(=O)N2[C@@H]1c1cccc(OCCO)c1
MEASUREMENT: 0.156

**Query** Give a short answer stating reported composite z-score for "[N-]=[N+]=NCc1ccccc1C[C@]1(C(=O)N2CCOCC2)N=C(c2ccc(OCCCO)cc2)O[C@H]1c1ccccc1" .
**Result** 0.102

* * *

Tested on: Lefty1
Assay: Lefty1 protein binding to printed compounds – biochemical, small-molecule microarray, 635/667 nm fluorescence, primary screen (AID 1139)
Details: fluorescence 635/667, higher = more signal
Label criterion met when composite z-score >= 0.6; otherwise criterion not met.

COMPOUND: COc1ccc(CCNC(=O)[C@@]2(C)c3ccccc3C(=O)N(Cc3ccccc3)[C@H]2c2ccc(CO)cc2)cc1
CLASS LABEL: criterion met
//
COMPOUND: C=CC[C@@]1(C(N)=O)N=C(c2ccc(OCCCO)cc2)O[C@@H]1c1ccccc1N=[N+]=[N-]
CLASS LABEL: criterion met
//
COMPOUND: O[C@@H](Cc1ccccc1)[C@@H](/C=C/c1ccccc1)NCc1ccccc1Br
CLASS LABEL: criterion not met
//
COMPOUND: O=C1C2C=CC(C(O)c3ccccn3)N(Nc3ccccc3F)C2C(=O)N1c1ccccc1 (stereo not given)
CLASS LABEL: criterion not met
//
COMPOUND: CCCC[C@H]1OB(O)C[C@H]2C1=C(C)Cn1c(=O)n(-c3ccccc3)c(=O)n12
CLASS LABEL: criterion not met

**Query** Could you please find out whether CCN(CC)c1ccc(N2CC=CC34O[C@@H]5/C=C\CCCOC(=O)C5[C@H]3C(=O)N(CCCO)[C@@H]4C2=O)cc1 (stereo not given in full) has composite z-score that meets 0.6 or exceeds it?
**Result** criterion not met

**Query** Would you say "CCCCC(=C=CC[C@H](O)c1ccccc1OCCO)C[C@H](O)c1cc(Cl)cc(Cl)c1O" shows composite z-score at minimum 0.6?
**Result** criterion not met

**Query** Hi team, for C=C(C)[C@@H]1CC=C(C(O)C2C=CC3C(=O)N(Cc4ccccc4)C(=O)C3N2n2cnnc2)CC1 (stereo not given in full) , is the recorded composite z-score at or above 0.6?
**Result** criterion not met

**Query** Can "CO[C@H]1O[C@H](CO)[C@@H](OC(=O)Nc2ccc3c(c2)OCO3)[C@H](OC(=O)Nc2ccc3c(c2)OCO3)[C@H]1OC(=O)Nc1ccc2c(c1)OCO2" be said to have composite z-score at or above 0.6?
**Result** criterion met

**Query** Threshold query (composite z-score >= 0.6) on O=C(NCC(O)CO)[C@]1(CCS(=O)(=O)c2ccccc2)N=C(c2ccc(OCCCO)cc2)O[C@@H]1c1ccccc1 (stereo not given in full)
**Result** criterion not met

**Query** # check: composite z-score of C=CCC(OC(C)=O)[C@@H]1[C@@H](N(Cc2ccc(-c3cccc(C(F)(F)F)c3)o2)C(=O)Cc2ccc(OC)cc2)c2cc(OCCCO)ccc2N1C(=O)Cc1ccc(OC)cc1 (stereo not given in full) is greater than or equal to 0.6
**Result** criterion not met

**Query** Given the entry "CO[C@H]1O[C@H](CO)[C@@H](OC(=O)Nc2ccccc2-c2ccccc2)[C@H](OC(=O)Nc2ccccc2-c2ccccc2)[C@H]1OC(=O)Nc1ccccc1-c1ccccc1" , answer whether its composite z-score meets or surpasses 0.6.
**Result** criterion met

**Query** Does composite z-score meet or surpass 0.6 for "C=CCOC(=O)[C@H]1[C@@H]2C(=O)O[C@@H](c3ccccc3)[C@@H](c3ccccc3)N2[C@@H](c2ccc(OCCOC(=O)[C@@H]3C[C@@H]4C(=O)NCC(=O)N4[C@@H]3c3ccc(O)cc3)cc2)[C@]12C(=O)Nc1ccc(I)cc12" ?
**Result** criterion met

**Query** Given "CN(C)CCCN1C(=O)[C@@]2(c3ccc([N+](=O)[O-])cc3)CC(=O)N(C3CCCCC3)[C@@H]2c2ccc(CO)cc21" , state whether its composite z-score is at least 0.6.
**Result** criterion not met

**Query** Has "[N-]=[N+]=Nc1ccccc1[C@H]1OC(c2ccc(OCCCO)cc2)=N[C@@]1(CCS(=O)(=O)c1ccccc1)C(=O)N1CCOCC1" a recorded composite z-score greater than or equal to 0.6?
**Result** criterion not met

* * *

Give z-score for every item shown.
Test: JC-1 mitochondrial potential readout, lung cancer cells – cell-based, A549, JC-1 fluorescence, basal, 24 h, 100 nL, profiling panel (AID 1138);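 also: A549 lung adenocarcinoma cells under basal conditions with no added stimulus; test concentration not given here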
Conditions: higher = more signal
One number for each entry.

Worked examples follow.
COMPOUND: Cc1ccc(N2C(=O)c3ccccc3[C@@H](C(=O)NCC(C)C)[C@@H]2c2ccc(CO)cc2)nc1
z-score: 0.738
--
COMPOUND: O=C1C[C@@](C(=O)O)(c2ccc([N+](=O)[O-])cc2)[C@@H](c2ccc(CO)cc2I)N1CC12CC3CC(CC(C3)C1)C2
z-score: -1.1
--
COMPOUND: O=C1OCCC/C=C\[C@H]2OC34C=CCN(CCN5CCOCC5)C(=O)[C@H]3N(CCO)C(=O)[C@@H]4C12 (some centres undefined)
z-score: -1.08

Now let's try a different one.
**Query** Find the measured z-score of "COC(=O)c1c(CC[C@@H](CO)NC(=O)Nc2ncn[nH]2)oc(C(=O)Cc2ccccc2)c1C(=O)OC" and report it.
**Result** -0.491

* * *

Assay: ATP-based viability of Huh7 replicon cells – cell-based, CellTiter-Glo luminescence, basal, 48 h, cytotoxicity control for HCV replication inhibitor project, primary screen (AID 1143);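 also: Huh7 hepatoma cells carrying a hepatitis C replication reporter with no stimulus; test concentration not given here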
Conditions: higher = more signal, called active from +8 up or from −8 down
Give yes (1) when the value for z-score is at least -0.9. Give no (0) when it is less.

Here are 2 compounds together with their reported answers.
STRUCTURE SMILES STRING: Oc1ccc2cc[n+](Cc3cccc(OC(F)(F)F)c3)cc2c1
CLASS LABEL: yes (1)
//
STRUCTURE SMILES STRING: CC(C)NC(=O)[C@@]1(c2ccc([N+](=O)[O-])cc2)CC(=O)N(C(C)C)[C@@H]1c1ccc(CO)cc1
CLASS LABEL: no (0)

**Query** Could you tell me if the measured z-score of "[N-]=[N+]=NCc1ccccc1C[C@]1(C(=O)N2CCOCC2)N=C(c2ccc(OCCCO)cc2)O[C@H]1c1ccccc1" reaches -0.9 or more?
**Result** no (0)

**Query** Textbook exercise: given the entry "NC(=O)[C@]1(Cc2ccccc2)N=C(c2ccc(OCCCO)cc2)O[C@@H]1c1ccccc1" , state whether its z-score is greater than or equal to -0.9.
**Result** no (0)

* * *

Would you mind telling me the reported composite z-score of each entry?
Target: E3 ubiquitin-protein ligase XIAP (Homo sapiens)
Assay: small molecules binding XIAP protein – biophysical, small-molecule microarray, fluorescence 635 nm, primary screen (AID 1181);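 also: score merges 667 nm emission and signal to noise over triplicate slides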
Settings: higher = more signal
Numbers only.

MOLECULE: CCN(CC)c1ccc(N2CC=CC34O[C@@H]5C=CCCOC(=O)C5[C@H]3C(=O)N(CCCO)[C@@H]4C2=O)cc1 (stereo partly drawn)
MEASUREMENT: -0.516
//
MOLECULE: C=CCN1Cc2ccccc2C[C@@]2(COC(c3ccc(OCCCO)cc3)=N2)C1=O
MEASUREMENT: 0.236

Please state composite z-score for every molecule in the list that follows.
1. COC(=O)[C@@]1(Cc2ccc(OC)cc2)[C@H]2c3cc(C(=O)N(C)C)n(Cc4ccc(OC)c(OC)c4)c3C[C@H]2CN1C(=O)c1ccccc1
2. CS(=O)(=O)CCOC(=O)C1=CC(c2ccc(CO)cc2)=CC(c2cccs2)N(Cc2cccc(OC(F)(F)F)c2)C=C1C(=O)OCCS(C)(=O)=O (stereo not drawn)
3. C=C(/C(=C/C[C@@H](OC(=O)c1ccncc1)c1ccc(CO)o1)c1cc(C(=O)OC)ccc1OC)C(C)C
4. O=C1O[C@H](c2ccccc2)[C@H](c2ccccc2)N2[C@H]1[C@@H](C(=O)NC[C@H](O)c1ccccc1)[C@]1(C(=O)Nc3ccc(C#CC4=CCCCC4)cc31)[C@H]2c1ccc(O)cc1

**Result**
[0.124, -0.22, -0.187, -0.124]

# batch size: 2; output composite z-score per entry
1. CCCCC(=C=CC[C@H](O)c1ccccc1OCCO)C[C@H](O)c1cc(Cl)cc(Cl)c1O
2. CCCNC(=O)[C@@]1(c2ccc([N+](=O)[O-])cc2)CC(=O)N(CC23CC4CC(CC(C4)C2)C3)[C@@H]1c1ccc(CO)cc1I

**Result**
[-0.138, -0.0749]
